Tested on: SK-MEL-5 melanoma
Assay: NCI tumour cell line growth inhibition, 48 h
TGI values, listed per item
observable: TGI (µM)

compound=CCn1c(=O)nc2n(-c3ccc(SC)cc3)c3ccccc3nc-2c1=O observable=TGI valuemodifier=> observedvalue=100
compound="COc1cc(C2c3cc4c(cc3[C@@H](Nc3ccc(F)cc3)C3COC(=O)[C@H]23)OCO4)cc(OC)c1O (some centres undefined)" observable=TGI valuemodifier== observedvalue=8.56
compound=C(=C\c1ccc2ccccc2c1Nc1ccccc1)/c1ccccc1 observable=TGI valuemodifier=> observedvalue=100
compound="CC(C)C1OC(=O)C(Cc2ccccc2)N(C)C(=O)C(C(C)C)OC(=O)C(Cc2ccccc2)N(C)C(=O)C(C(C)C)OC(=O)C(Cc2ccccc2)N(C)C1=O (centres undefined)" observable=TGI valuemodifier== observedvalue=1.08
compound=COc1ccc(/C=C\c2cc(OC)c(OC)c(OC)c2)cc1NC(=O)/C=C/c1cc(OC)c(OC)c(OC)c1 observable=TGI valuemodifier== observedvalue=6.73
compound=COc1cc(OC)c(/C=C/S(=O)(=O)Cc2ccc(OC)c(N)n2)c(OC)c1 observable=TGI valuemodifier== observedvalue=0.0116
compound=c1cc(CSP234N5CCN2CCN3CCN4CC5)cc(CSP234N5CCN2CCN3CCN4CC5)c1 observable=TGI valuemodifier== observedvalue=45.5
compound=O=C(OC[C@H]1C[C@H]2C(=O)OCCC[C@H]2O1)c1ccccc1 observable=TGI valuemodifier=> observedvalue=100
compound="COc1cccc(C2c3cc4c(cc3OC(NNS(=O)(=O)c3ccc(C)cc3)C2C)OCO4)c1O (centres undefined)" observable=TGI valuemodifier== observedvalue=42

----------
Test system: SK-MEL-2 melanoma
Experiment: NCI tumour cell line growth inhibition, 48 h
observable: TGI

compound=COc1ccccc1NC(=O)c1sc2ncn(CCOc3ccccc3)c(=O)c2c1C observedvalue="> 50 µM"
compound=C(/C=C(\Nc1ccccc1)c1ccc2ccccc2c1)=Nc1ccccc1 observedvalue="30.9 µM"
compound=O=C(/C=C/c1ccco1)Nc1ncc(Cc2cc(Cl)ccc2Cl)s1 observedvalue="> 100 µM"
compound=Cc1ccc(-c2ccc3c(c2)Sc2ccccc2O3)n1C observedvalue="4.26 µM"
compound="CCOC(=O)C(=O)CC(=O)C(Br)C(Br)c1ccc(Cl)cc1 (stereo not given)" observedvalue="> 100 µM"
compound=O=C1OCc2nc3c(c(-c4ccccc4C(F)(F)F)c21)C(=O)OC3 observedvalue="> 100 µM"
compound=CC1=C(C(=S)Nc2ccc(Cl)c(C(=O)OC(C)C)c2)SCCO1 observedvalue="48.9 µM"
compound=CCOC(=O)c1c(NS(=O)(=O)c2ccccc2)sc2c1CCCC2 observedvalue="> 100 µM"
compound=C/C(=C\COP(=O)(O)OP(=O)(O)O)CC/C=C(\C)CNc1c(F)c(F)c(F)c(F)c1F observedvalue="> 100 µM"
compound="CN1N=C(c2ccncc2)OC1c1ccc(C(F)(F)F)cc1 (stereo not given)" observedvalue="> 100 µM"
compound="O=C1c2ccccc2-c2cn(Cc3ccccc3)c3cccc(c23)C1c1cccnc1 (stereo not given)" observedvalue="> 50 µM"
compound=CN1CCN(Cc2ccc(NC(=O)c3cncc(C#Cc4c(N)ncc5ccccc45)c3)cc2C(F)(F)F)CC1 observedvalue="1.72 µM"
compound="CSCSCC(CO)NC(=O)/C=C/c1c(C)[nH]c(=O)[nH]c1=O (stereo not given)" observedvalue="> 100 µM"
compound=CCOC(=O)/C(C(=O)c1ccc[nH]1)=C1/CCCN1C observedvalue="> 100 µM"
compound=COC(=O)c1sc(-n2cnc3cc(OC)c(OC)cc32)cc1OCc1ccccc1C(F)(F)F observedvalue="> 25 µM"
compound=O=C(O)COc1c(Cl)cc(Cl)c(C(c2c(Cl)cc(Cl)c(OCC(=O)O)c2Cl)C(Cl)(Cl)Cl)c1Cl observedvalue="42.2 µM"
compound="CC[C@H](C)[C@H](NC(=O)CN(C)C)C(=O)N(C)[C@H](C[C@@H](OC(C)=O)c1nc(C(=O)NC23C4C5C2C2C3C4C52C(=O)OC)cs1)C(C)C (stereo not given in full)" observedvalue="> 33.2 µM"
compound="COc1cc(C2c3cc4c(cc3[C@@H](Nc3ccc(F)cc3)C3COC(=O)[C@H]23)OCO4)cc(OC)c1O (stereo not given in full)" observedvalue="19.2 µM"
compound=Cc1[nH]c2c(C)c3c([nH]c4ccc(Cl)cc43)c(C)c2c(=O)c1C observedvalue="> 100 µM"
compound=CN(C)CCCn1c(-c2ccc(Br)cc2)csc1=Nc1ccccc1 observedvalue="31 µM"

----------
Tested on: TK-10 renal
Experiment: NCI tumour cell line growth inhibition, 48 h
TGI values, listed per item
observable: TGI

compound=COc1cccc(/C=C\C(=O)c2ccccc2)c1 observable=TGI observedvalue="30.4 µM"
compound="COc1ccc(C(CC(=O)c2cccs2)C(=O)c2ccc3c(c2)OCO3)cc1 (stereo unspecified)" observable=TGI observedvalue="> 100 µM"
compound=CCn1c(=O)c2nc(SC)sc2n(-c2ccccc2)c1=S observable=TGI observedvalue="> 100 µM"
compound="NP1(Oc2ccc(F)cc2)=NP(N)(Oc2ccc(F)cc2)=NP(Oc2ccc(F)cc2)(Oc2ccc(F)cc2)=N1 (stereo unspecified)" observable=TGI observedvalue="12.3 µM"
compound=CN(CCNC(=O)c1nn(C)c2c1Cc1ccccc1-2)CCNC(=O)c1nn(C)c2c1Cc1ccccc1-2 observable=TGI observedvalue="29.6 µM"
compound=Nc1nc(SCC#CCCl)c2[nH]cnc2n1 observable=TGI observedvalue="11.1 µM"
compound=Cc1cnc(C(=O)Nc2nc3ccc(S(=O)(=O)Nc4ccc(C(C)(C)C)cc4)cc3[nH]2)cn1 observable=TGI observedvalue="15.2 µM"
compound="CC[C@H](C)[C@H](NC(=O)CN(C)C)C(=O)N(C)[C@H](C[C@@H](OC(C)=O)c1nc(C(=O)NC23C4C5C2C2C3C4C52C(=O)OC)cs1)C(C)C (stereo partly specified)" observable=TGI observedvalue="> 33.2 µM"
compound=COc1ccc2cc(CNCCCCCCNC(=O)Nc3cccc4ccccc34)ccc2c1 observable=TGI observedvalue="> 100 µM"
compound=Nc1nc(N)c(CCCCc2ccc([N+](=O)[O-])cc2)c(N)n1 observable=TGI observedvalue="> 100 µM"
compound=Oc1ccccc1/C=N\NC(=S)Nc1ccc(F)cc1 observable=TGI observedvalue="> 100 µM"
compound=Cc1cccc(NC(=S)NNC(=O)c2cc(-c3ccccc3)nc3ccccc23)c1 observable=TGI observedvalue="> 100 µM"
compound=CCn1c(=O)nc2n(-c3ccc(SC)cc3)c3ccccc3nc-2c1=O observable=TGI observedvalue="> 100 µM"
compound=COC(=O)[C@@H]1CN(C(=O)Cc2ccccc2)C(=O)N1 observable=TGI observedvalue="> 100 µM"
compound="C[N+]1(CC[N+]2(C)CCCC2c2cccnc2)CCCC1c1cccnc1 (stereo unspecified)" observable=TGI observedvalue="> 100 µM"
compound="COc1cc(C2c3cc4c(cc3[C@@H](Nc3ccc(F)cc3)C3COC(=O)[C@H]23)OCO4)cc(OC)c1O (stereo partly specified)" observable=TGI observedvalue="14.8 µM"
compound="Cc1ccc(NC(c2ccccc2)P(=O)(c2ccccc2)c2ccccc2)cc1 (stereo unspecified)" observable=TGI observedvalue="> 100 µM"
compound=NC1=Nc2ncccc2C(=O)NN1 observable=TGI observedvalue="> 10 µM"
compound=N#C/C(=C/c1ccc([N+](=O)[O-])o1)c1ccccc1 observable=TGI observedvalue="> 100 µM"
compound="CC(C)C(Sc1nc(N)nc2nc[nH]c12)C(=O)O (stereo unspecified)" observable=TGI observedvalue="> 100 µM"
compound=O=[N+]([O-])c1ccc(N=P(c2ccccc2)(c2ccccc2)c2ccccc2)n2nnnc12 observable=TGI observedvalue="> 100 µM"

----------
System: RXF-631 renal
Experiment: NCI tumour cell line growth inhibition, 48 h
TGI values, listed per item
observable: TGI

compound="O=C(CC1(O)C(=O)Nc2ccccc21)c1cccc(O)c1 (stereo not given)" target="RXF-631 renal" observable=TGI observedvalue="> 100 µM"
compound="Cc1ccccc1NC(=O)C(=O)C(C(=O)c1ccccc1F)C1OC(=O)c2ccccc21 (stereo not given)" target="RXF-631 renal" observable=TGI observedvalue="73.6 µM"
compound=N#Cc1c(N)oc2cc3c(C#N)c(N)oc3cc12 target="RXF-631 renal" observable=TGI observedvalue="> 100 µM"
compound=CCn1c(=O)nc2n(-c3ccc(SC)cc3)c3ccccc3nc-2c1=O target="RXF-631 renal" observable=TGI observedvalue="> 100 µM"
compound="CC(=O)OC1(C(C)=O)CC2(c3ccccc3)OC1(c1ccccc1)c1ccccc12 (stereo not given)" target="RXF-631 renal" observable=TGI observedvalue="> 100 µM"
compound="CC(=O)O[C@H]1CSC[C@@H](OC(C)=O)C1[N+](=O)[O-] (stereo not given in full)" target="RXF-631 renal" observable=TGI observedvalue="> 100 µM"
compound=O=C1CCNC/C1=C\c1ccccc1 target="RXF-631 renal" observable=TGI observedvalue="> 100 µM"
compound="COc1cc(O)c(C(=O)C2Cc3ccccc32)c(OC)c1 (stereo not given)" target="RXF-631 renal" observable=TGI observedvalue="> 100 µM"
compound="CCNC(=O)O/N=C1\\CCC2[C@@H]3CC=C4C[C@@H](OC(=O)NCC)CC[C@]4(C)C3CC[C@]12C (stereo not given in full)" target="RXF-631 renal" observable=TGI observedvalue="17.3 µM"
compound="CC(=O)OC1COC(N2C(=O)C(=O)c3ccccc32)C(OC(C)=O)C1OC(C)=O (stereo not given)" target="RXF-631 renal" observable=TGI observedvalue="> 100 µM"
